- System Name: Hydroxycarboxylic acid receptor 1 (Homo sapiens)
- Sequence (Q9BXC0 whole entry): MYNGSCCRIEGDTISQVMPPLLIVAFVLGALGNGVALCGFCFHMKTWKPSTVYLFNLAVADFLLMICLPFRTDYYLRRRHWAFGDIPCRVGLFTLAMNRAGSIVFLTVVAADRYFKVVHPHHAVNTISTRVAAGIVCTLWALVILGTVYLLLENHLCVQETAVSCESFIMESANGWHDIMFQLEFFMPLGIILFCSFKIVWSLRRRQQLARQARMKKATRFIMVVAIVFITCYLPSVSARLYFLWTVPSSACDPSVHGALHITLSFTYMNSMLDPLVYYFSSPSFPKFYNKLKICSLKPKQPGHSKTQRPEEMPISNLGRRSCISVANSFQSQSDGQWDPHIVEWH
- Run Description: Agonist activity at human GPR81 overexpressed in CHO cells assessed as inhibition of forskolin-stimulated cAMP production
The compounds listed here are annotated with their pEC50.
Reminder that pEC50 means the negative base-10 logarithm of the concentration expressed in mol/L.

CCOc1cc(Cl)c(C(=O)NC(=O)Nc2cc3ccccc3s2)cc1N1CCOCC1    6.59
CCOc1cc(Cl)c(-c2ccc(-c3nc4c(s3)CN(C(=O)CO)CC4)c(=O)[nH]2)cc1N1CCOCC1    7.66

State the recorded pEC50 for this entry: CCOc1cc(Cl)c(C(=O)NC(=O)Nc2nc3ccc(CN4CCN(C)CC4)cc3s2)cc1N1CCO[C@H](C)C1
7.49

----------
- Run Description: Solubility of compound
- Type: physicochemical
Test Readout: solubility

See these solved cases before continuing.
CCOc1cc(Cl)c(-c2ccc(-c3nc4ccccc4s3)c(=O)[nH]2)cc1N1CCOCC1    < 0.7 µM
CCOc1cc(Cl)c(-c2ncc(-c3nc4ccccc4s3)c(=O)[nH]2)cc1N1CCOCC1    < 0.31 µM

State the recorded solubility for this entry: CCOc1cc(Cl)c(C(=O)Nc2nc3ccc(S(=O)(=O)CCCN4CCN(C)CC4)cc3s2)cc1N1C[C@H](C)O[C@@H](C)C1
155 to 231 µM

----------
- System Name: Hydroxycarboxylic acid receptor 2 (Homo sapiens)
- Sequence (Q8TDS4 whole entry): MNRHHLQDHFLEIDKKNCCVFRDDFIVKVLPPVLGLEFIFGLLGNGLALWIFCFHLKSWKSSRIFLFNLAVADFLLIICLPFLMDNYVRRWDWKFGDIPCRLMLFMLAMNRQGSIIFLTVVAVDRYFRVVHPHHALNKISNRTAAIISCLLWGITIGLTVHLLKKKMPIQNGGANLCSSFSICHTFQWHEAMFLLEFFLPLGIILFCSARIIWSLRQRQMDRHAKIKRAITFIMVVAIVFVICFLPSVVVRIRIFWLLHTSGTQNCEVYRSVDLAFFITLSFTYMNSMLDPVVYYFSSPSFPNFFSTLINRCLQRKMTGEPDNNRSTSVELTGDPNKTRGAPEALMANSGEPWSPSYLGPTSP
- Run Description: Agonist activity at human GPR109A receptor
The molecules listed here are annotated with their EC50.

See these solved cases before continuing.
CCOc1cc(Cl)c(C(=O)Nc2nc3ccc(CN4CCN(C)CC4)cc3s2)cc1N1CCOCC1    > 11 µM
CCOc1cc(Cl)c(C(=O)Nc2nc3ccc(S(=O)(=O)CCCN4CCN(C)CC4)cc3s2)cc1N1CCOCC1    > 6.3 µM
CCOc1cc(Cl)c(C(=O)Nc2nc3ccc(S(=O)(=O)CCCN4CCN(C)CC4)cc3s2)cc1N1C[C@H](C)O[C@@H](C)C1    1.4 to 3.2 µM

State the recorded EC50 for this entry: CCOc1cc(Cl)c(-c2ncc(-c3nc4ccccc4s3)c(=O)[nH]2)cc1N1CCOCC1
> 22 µM

State the recorded EC50 for this entry: CCOc1cc(Cl)c(C(=O)Nc2nc3ccc(S(=O)(=O)C4CCN(C)CC4)cc3s2)cc1N1CCOCC1
> 9 µM

----------
- System Name: Growth hormone secretagogue receptor type 1 (Homo sapiens)
- Sequence (Q92847 whole entry): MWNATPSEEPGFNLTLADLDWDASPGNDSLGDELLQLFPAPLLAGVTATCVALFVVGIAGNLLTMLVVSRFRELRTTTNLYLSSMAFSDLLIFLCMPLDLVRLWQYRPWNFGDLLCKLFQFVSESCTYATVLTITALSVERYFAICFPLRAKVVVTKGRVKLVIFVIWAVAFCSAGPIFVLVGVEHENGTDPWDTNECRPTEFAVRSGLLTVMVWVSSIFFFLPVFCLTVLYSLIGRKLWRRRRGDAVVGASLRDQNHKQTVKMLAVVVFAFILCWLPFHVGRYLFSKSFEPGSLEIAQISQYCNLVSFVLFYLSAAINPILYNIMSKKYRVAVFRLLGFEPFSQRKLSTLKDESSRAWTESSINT
- Run Description: Displacement of [125I]-ghrelin from human GHS-R1a stably expressed in HEK cell membrane measured after 60 mins by gamma counter method
pIC50: −log10 of the molar value.
Test Readout: pIC50

See these solved cases before continuing.
CCOc1cc(Cl)c(C(=O)Nc2nc3ccc(S(=O)(=O)CCCN4CCN(C)CC4)cc3s2)cc1N1CCOCC1    < 4.30
CCOc1cc(Cl)c(C(=O)Nc2nc3ccc(OC4CCN(C)CC4)cc3s2)cc1N1CCOCC1    < 4.52
CCOc1cc(Cl)c(-c2ccc(-c3nc4c(s3)CN(C(=O)COC)CC4)c(=O)[nH]2)cc1N1CCOCC1    < 4.30
CCOc1cc(Cl)c(C(=O)N(C)C(=O)Nc2nc3ccc(CN4CCN(C)CC4)cc3s2)cc1N1CCOCC1    < 4.30
CCOc1cc(Cl)c(C(=O)Nc2nc3ccccc3s2)cc1N1CCOCC1    < 4.30
CCOc1cc(Cl)c(-c2ncc(-c3nc4ccc(S(=O)(=O)C5CCN(C)CC5)cc4s3)c(=O)[nH]2)cc1N1CCOCC1    < 4.74

Missing value: pIC50, Growth hormone secretagogue receptor type 1 (Homo sapiens), entry CCOc1cc(Cl)c(CNC(=O)Nc2nc3ccc(CN4CCN(C)CC4)cc3s2)cc1N1CCOCC1 . Fill in?
< 5.30

Missing value: pIC50, Growth hormone secretagogue receptor type 1 (Homo sapiens), entry CCOc1cc(Cl)c(C(=O)Nc2nc3ccc(S(=O)(=O)CCCN4CCN(C)CC4)cc3s2)cc1N1C[C@H](C)O[C@@H](C)C1 . Fill in?
4.85 to 5.00

Missing value: pIC50, Growth hormone secretagogue receptor type 1 (Homo sapiens), entry CCOc1cc(Cl)c(C(=O)Nc2nc3ccc(S(=O)(=O)C4CCN(C)CC4)cc3s2)cc1N1CCOCC1 . Fill in?
< 4.30

Missing value: pIC50, Growth hormone secretagogue receptor type 1 (Homo sapiens), entry CCOc1cc(Cl)c(C(=O)Nc2nc3ccc(CN4CCN(C)CC4)cc3s2)cc1N1CCOCC1 . Fill in?
< 4.30

Missing value: pIC50, Growth hormone secretagogue receptor type 1 (Homo sapiens), entry CCOc1cc(Cl)c(NC(=O)Nc2nc3ccc(CN4CCN(C)CC4)cc3s2)cc1N1CCOCC1 . Fill in?
< 4.30
